GI50 by entry:
# Tested on: SK-MEL-2
# METHOD_SUMMARY: NCI tumour cell line growth inhibition, 48 h
Calls of active or inactive are those of the source. No stated cut-off is given here; in the data, active = GI50 up to about 1.1 µM and inactive = higher.

Below, each entry is followed by its recorded GI50 result.
[
  {
    "MOLECULE": "O=C1OC(C(O)CO)C(O)=C1O (stereo not given)",
    "ENDPOINT": "GI50",
    "MEASURED_RESULT": "> 100 µM (inactive)"
  },
  {
    "MOLECULE": "CC1CCC2(OC1)OC1CC3C4CC=C5CC(OC6OC(CO)C(OC7OC(C)C(OC8OC(C)C(O)C(O)C8O)C(O)C7O)C(O)C6OC6OC(C)C(O)C(O)C6O)CCC5(C)C4CCC3(C)C1C2C (stereo not given)",
    "ENDPOINT": "GI50",
    "MEASURED_RESULT": "1.21 µM (inactive)"
  },
  {
    "MOLECULE": "C=CCc1cccc2cc(C(=O)NC3CCCCC3)c(=N)oc12",
    "ENDPOINT": "GI50",
    "MEASURED_RESULT": "3.98 µM (inactive)"
  },
  {
    "MOLECULE": "NC(=S)N/N=C(/C(=O)Nc1nc2ccc([N+](=O)[O-])cc2s1)C1C(=O)NC(=S)NC1=O",
    "ENDPOINT": "GI50",
    "MEASURED_RESULT": "> 100 µM (inactive)"
  },
  {
    "MOLECULE": "CC(=O)N1C(C(=O)NC2CCCCC2)CSC1c1ccccc1 (stereo not given)",
    "ENDPOINT": "GI50",
    "MEASURED_RESULT": "> 100 µM (inactive)"
  },
  {
    "MOLECULE": "S=C(Nc1ccccc1)Nc1[nH]c(=S)sc1-c1nc2ccccc2[nH]1",
    "ENDPOINT": "GI50",
    "MEASURED_RESULT": "38.4 µM (inactive)"
  },
  {
    "MOLECULE": "CC1=C(C(=O)Nc2cc(=O)n(C)c(=O)n2C)C(c2cccc([N+](=O)[O-])c2)C(C(=O)Nc2cc(=O)n(C)c(=O)n2C)=C(C)N1",
    "ENDPOINT": "GI50",
    "MEASURED_RESULT": "> 100 µM (inactive)"
  },
  {
    "MOLECULE": "CCC(C)(C)c1ccc(Oc2cccc(C(=O)O)c2)cc1",
    "ENDPOINT": "GI50",
    "MEASURED_RESULT": "45.2 µM (inactive)"
  }
]

Task: Report GI50, nothing else, for this molecule: O=C1c2cc(Cl)ccc2N=C(NC2CCCC2)C2CSCN12 (stereo not given)
Output: 36.2 µM (inactive)

Task: Report GI50, nothing else, for this molecule: COc1cc(NS(C)(=O)=O)ccc1Nc1cc(C)nc2ccc3[nH]ccc3c12
Output: > 100 µM (inactive)
